What log10 vapour pressure (mmHg) was measured for each of the following?
Answers are plain numbers.

Please review the entries below; each comes with its answer.
- Molecule: "CCCCC(CC)CCl (stereo not drawn)"
  log10 vapour pressure (mmHg): 0.0792
- Molecule: "Cc1cccnc1C"
  log10 vapour pressure (mmHg): 0.43
- Molecule: "Nc1nc(N)nc(NC2CC2)n1"
  log10 vapour pressure (mmHg): -8.47

Could you tell me log10 vapour pressure (mmHg) for each of these molecules? They are listed below.
1. COC(=O)CC(=O)OC
2. Oc1ccccc1Cl
3. CC(C)CO
4. COC(=O)NC(=S)Nc1ccccc1NC(=S)NC(=O)OC
5. CCCCCC=O

# output
1: -0.0458; 2: 0.403; 3: 1.02; 4: -7.15; 5: 1.05

// each listed molecule needs a value for log10 vapour pressure (mmHg)
1. c1ccc2[nH]ccc2c1
2. CCc1ccc(Br)cc1
3. CC(N)CN (stereo not drawn)
4. CCCN(CCC)C(=O)SCC
5. O=C1c2ccccc2C(=O)c2c(NCCO)cccc21
6. Fc1cc2c(cc1F)Oc1cc(Br)c(Br)cc1O2
7. O=C=Nc1cccc(Cl)c1

# output
[-1.91, -0.155, 1.03, -1.62, -11, -7.74, -0.712]

Go through the items and report each one's log10 vapour pressure (mmHg).
1. CCOCC
2. CC(C)C=O
3. CC(C)C1CCCC1

# output
1. 2.73
2. 2.24
3. 1.21

====

Assignment: determine reported boiling point for the given molecules.
Give bare numbers, in °C.

Please give boiling point for each item listed below.
1. CCC(C)(C)Br
2. C[Si]1(C)O[Si](C)(C)O[Si](C)(C)O[Si](C)(C)O[Si](C)(C)O[Si](C)(C)O[Si](C)(C)O[Si](C)(C)O1
3. CC/C(=C\c1ccccc1)[N+](=O)[O-]

# output
1: 108; 2: 290; 3: 308

Please supply boiling point for each of the following items, keeping them in order.
1. CCCCCCCCCC(=O)O
2. CC(C)=C(C)C(C)C
3. CCOC(=O)c1ccc(C(=O)OCC)cc1
4. CCCCCCCCOC(=O)CCC

# output
[269, 116, 302, 244]

====

Hi there, I'd appreciate the recorded melting point for every entry that follows.
Give bare numbers, in °C.

- Compound: "CC(C)OC(=O)Nc1cccc(Cl)c1"
  Assay Readout: "melting point"
  Output Unit: "°C"
  Experimental Result: 41

Hey, quick one: what's melting point for each of these?
1. NS(=O)(=O)c1cc2c(cc1Cl)NC(CC1CCCC1)NS2(=O)=O (stereo not given)
2. Cc1nnc(C)s1
3. O=[N+]([O-])c1cccc2cnccc12
4. CC(C)CCSCCC(C)C
5. O=S1OCCO1
6. Cc1cc(C)nc(Nc2ccccc2)n1
7. O=Cc1ccco1

# output
1: 238; 2: 65; 3: 110; 4: -74.6; 5: -11; 6: 96.3; 7: -38.1

Would you be so kind as to report melting point for each listed record?
1. CCCCCCCCC[C@H](O)CC
2. Cc1cccc(C)c1OCC(C)N (stereo not given)
3. CCCC(N)C(=O)O (racemic)
4. O=C1c2cc3ccccc3cc2-c2ccc3ccccc3c21
5. CCCCCCCC/C=C\CCCCCCCC#N

# output
1: 25; 2: 204; 3: 305; 4: 214; 5: -1

Provide melting point for all items below, preserving their order.
1. CN(C)C(=O)Cl
2. CCCCCCCCC(=O)CC
3. FC1(F)C(F)(F)C(F)(F)C2(F)C(F)(C1(F)F)C(F)(F)C(F)(F)C1(F)C(F)(F)C(F)(F)C(F)(F)C(F)(F)C12F (stereo not given)
4. NC(=O)NCCCC(N)C(=O)O (stereo in doubt)
5. COP(=S)(OC)Oc1ccc(C#N)cc1
6. CCCCn1c2ccccc2c2ccccc21
7. CC(C)(C)c1ccc(OC(=O)c2ccccc2O)cc1

# output
1: -33; 2: 12; 3: -20; 4: 236; 5: 14.5; 6: 58; 7: 62

====

Provide the reported log10 Koc (L/kg) of each item.

- Compound: "Clc1ccc(-c2ccccc2Cl)cc1"
  Assay Readout: "log10 Koc (L/kg)"
  Experimental Result: 4.34
- Compound: "OCCc1ccccn1"
  Assay Readout: "log10 Koc (L/kg)"
  Experimental Result: 1.45
- Compound: "O=C(Oc1ccccc1)c1ccccc1"
  Assay Readout: "log10 Koc (L/kg)"
  Experimental Result: 3.16
- Compound: "Nc1c(Cl)cc([N+](=O)[O-])cc1Cl"
  Assay Readout: "log10 Koc (L/kg)"
  Experimental Result: 3
- Compound: "COCC(=O)N(c1c(C)cccc1C)C(C)C(=O)OC (stereo unspecified)"
  Assay Readout: "log10 Koc (L/kg)"
  Experimental Result: 1.57

Please supply log10 Koc (L/kg) for each of the following items, keeping them in order.
1. CCOP(=O)(NC(C)C)Oc1ccc(S(C)=O)c(C)c1 (stereo unspecified)
2. COP(=S)(OC)SCSc1ccc(Cl)cc1
3. CCOC(=O)CC(SP(=S)(OC)OC)C(=O)OCC (stereo unspecified)
4. CC1=C(C)S(=O)(=O)CCS1(=O)=O
5. COP(=O)(OC)O/C(C)=C/C(=O)N(C)C

# output
1.57
4.67
2.36
0.48
1.66

For every item below, please supply its log10 Koc (L/kg).
1. COP(=O)(OC)OC=C(Cl)Cl
2. CCOP(=S)(OCC)SCSc1ccc(Cl)cc1
3. ClC1(Cl)C2(Cl)C3(Cl)C4(Cl)C(Cl)(Cl)C5(Cl)C3(Cl)C1(Cl)C5(Cl)C24Cl (stereo unspecified)
4. c1ccc2c(c1)-c1cccc3cccc-2c13
5. CC(O)c1ccccc1 (stereo unspecified)

# output
1: 1.67; 2: 4.66; 3: 6; 4: 4.8; 5: 1.5

Hi there! I need log10 Koc (L/kg) for each item below, if you can.
1. CCCNc1c([N+](=O)[O-])cc(C(F)(F)F)cc1[N+](=O)[O-]
2. CCOC(=O)c1ccc(C)cc1
3. Brc1cc(Br)c(-c2c(Br)cc(Br)cc2Br)c(Br)c1
4. Cc1ccc(C(N)=O)cc1
5. CNC(=O)Oc1cc(C)c(N(C)C)c(C)c1
6. CCOP(=O)(OCC)SCc1ccccc1
7. CCCN(CCC)c1c([N+](=O)[O-])cc(C(C)C)cc1[N+](=O)[O-]
8. CN(C)C(=O)Nc1ccc(Oc2ccc(Cl)cc2)cc1

# output
3.61
2.59
4.87
1.78
2.48
2.4
4
3.55

====

Categorized via boiling point: lower (below 200 °C), middle (200 °C to below 300 °C), upper (300 °C or more)

- Molecule: "Cc1cnc(C)[nH]1"
  Label: "middle"
- Molecule: "Cc1ccc(C(F)(F)F)cc1"
  Label: "lower"
- Molecule: "Cc1cccc(C)c1I"
  Label: "middle"
- Molecule: "CCCOC(=O)c1ccoc1"
  Label: "middle"
- Molecule: "Cc1cc(C(C)C)ccc1O"
  Label: "middle"

# input Input COCCOC(=O)c1ccccc1C(=O)OCCOC ; output its category
# output upper

# input Next: FC(Cl)Cl
# output lower

# input And then CCCCCCCCCc1ccc(OP(=O)(Oc2ccccc2)Oc2ccccc2)cc1 , what is it?
# output upper

# input Try this molecule too: OCCOCCOCCOCCO
# output upper

# input Consider next the molecule Cc1cccc(C(C)(C)C)c1O in the same way.
# output middle

# input Same for Brc1ccc2c3c(cccc13)CC2
# output upper

# input COCC(C)O (stereo unspecified) ?
# output lower

====

// boundary case: boiling point equal to 200 °C maps to false; strictly smaller maps to true

Solved cases (5 shown):
- Compound: "CN(C)C=O"
  Label: "true"
- Compound: "CCCC(C(C)=O)C(=O)OCC (stereo not given)"
  Label: "false"
- Compound: "CCN1CN(CC)CN(CC)C1"
  Label: "false"
- Compound: "COc1cccc(OC)n1"
  Label: "true"
- Compound: "O[C@H]1C=CCCC1"
  Label: "true"

# input Given c1ncncn1 , is recorded boiling point strictly lower than 200 °C?
# output true

# input Item: Cc1cc(C)cc(C)c1
# output true

====

Kindly state melting point for each of the entries shown.
One number for each entry, in °C.

Here is how some compounds turned out for melting point.
- Compound: "Fc1cc(F)c(F)c(-c2c(F)c(F)cc(F)c2F)c1F"
  Output Unit: "°C"
  Experimental Result: 85
- Compound: "COc1ccccc1C(=O)c1ccccc1"
  Output Unit: "°C"
  Experimental Result: 41
- Compound: "CN1C2CCC1CC(OC(=O)c1ccccc1)C2 (configuration not stated)"
  Output Unit: "°C"
  Experimental Result: 49
- Compound: "O=c1oc2ccccc2c(O)c1Cc1c(O)c2ccccc2oc1=O"
  Output Unit: "°C"
  Experimental Result: 290
- Compound: "Cc1ccc(Cl)c(Cl)c1Cl"
  Output Unit: "°C"
  Experimental Result: 43.5

Please give melting point for each item listed below.
1. CCCCCCCCOC(=O)CCC
2. NS(=O)(=O)c1cc2c(cc1C(F)(F)F)NC(Cc1ccccc1)NS2(=O)=O (configuration not stated)

# output
1: -55.6; 2: 222
